Data provenance: patent US20260116920A1

biological target: T1, human transferrin receptor (hTfR) (human, UniProt P02786 89-760); assay: SPR; A = KD <1 nM
T1 construct: used as 0.5 uM hTfR dimer solution, immobilised on an NTA sensor chip (Ni capture plus EDC/NHS coupling); also called human TfR; TfR1
T1 sequence (P02786 89-760 limits assumed): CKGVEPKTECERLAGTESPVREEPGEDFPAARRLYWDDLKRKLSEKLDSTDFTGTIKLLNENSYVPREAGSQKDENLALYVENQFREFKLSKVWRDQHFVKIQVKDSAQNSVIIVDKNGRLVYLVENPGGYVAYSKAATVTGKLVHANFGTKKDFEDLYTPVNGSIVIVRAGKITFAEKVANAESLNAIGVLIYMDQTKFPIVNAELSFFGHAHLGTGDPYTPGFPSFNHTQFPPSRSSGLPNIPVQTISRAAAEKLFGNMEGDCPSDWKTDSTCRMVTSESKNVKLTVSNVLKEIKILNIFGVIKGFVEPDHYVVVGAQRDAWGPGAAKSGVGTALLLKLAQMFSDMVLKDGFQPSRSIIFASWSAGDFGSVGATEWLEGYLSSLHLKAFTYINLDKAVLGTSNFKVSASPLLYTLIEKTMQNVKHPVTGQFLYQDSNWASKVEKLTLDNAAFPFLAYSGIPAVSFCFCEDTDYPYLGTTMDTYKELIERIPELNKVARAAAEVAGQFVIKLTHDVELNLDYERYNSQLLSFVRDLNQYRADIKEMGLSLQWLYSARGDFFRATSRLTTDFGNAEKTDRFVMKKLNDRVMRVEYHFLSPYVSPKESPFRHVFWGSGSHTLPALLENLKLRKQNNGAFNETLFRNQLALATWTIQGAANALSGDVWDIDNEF
Starred links: 1 amine or outer side, 2 acyl side, 3 side chain; linkers in the order of their positions; H or OH if unused. Positions of bridges follow the written chain, without caps; N, C: chain ends. Non-standard residues stand in square brackets, D forms with d. Primed or numbered codes have the meaning given here. E(PEG8Me) = (S)-30-amino-27-oxo-2,5,8,11,14,17,20,23-octaoxa-26-azahentriacontane-31-oic acid, COCCOCCOCCOCCOCCOCCOCCOCCNC(=O)CC[C@H](N[*:1])C(=O)[*:2]; Phe(4-OMe)(3) = (S)-2-amino-3-(4-methoxyphenyl)propanoic acid (source code F4OMe), COc1ccc(C[C@H](N[*:1])C(=O)[*:2])cc1; F4aao = (S)-2-amino-3-(4-(carboxymethoxy)phenyl)propanoic acid, O=C([C@H](Cc1ccc(OCC(=O)[*:3])cc1)N[*:1])[*:2]; Trp(1-CH2CO) = O=C([C@H](Cc1cn(CC(=O)[*:3])c2ccccc12)N[*:1])[*:2]; NMePhe(3-Cl) = CN[C@@H](Cc1cccc(Cl)c1)C(=O)O; NMeY = CN[C@@H](Cc1ccc(O)cc1)C(=O)O
property label: KD

{"binder": "{CH2CO}-AV[NMePhe(3-Cl)]V[Trp(1-CH2CO)]NY[Phe(4-OMe)(3)]IERRF[NMeY]C-NH2 (thioether N-15; also: linker G-de-de-de-ds-ds-KN3, attachment not given here) [894_3167]", "result": "< 1 nM"}
{"binder": "{CH2CO}-AV[NMePhe(3-Cl)]VWNY[F4aao]II[E(PEG8Me)]RF[NMeY]C-NH2 (thioether N-15; also: linker PEG4c, place not given here) [849_0397]", "result": "< 1 nM"}
